Reference source: the supplement of paper PMC13380429

- System: Calu-3
- assay notes: drug sensitivity score (DSS) for viability; higher = more toxic; extreme values may be limits of the assay
- settings: 72 h
quantity measured: drug sensitivity score

1. c1ccc(COCCCc2c[nH]cn2)cc1; 0
2. CC(C)Oc1ccc(-c2cnc3c(-c4ccnc5ccccc45)cnn3c2)cc1; 0
3. Nc1nc(NCCNc2ncc(-n3ccnc3)c(-c3ccc(Cl)cc3Cl)n2)ccc1[N+](=O)[O-]; 0
4. Fc1ccc(CN2CCC(Nc3ccc(C(F)(F)F)nn3)CC2)cc1F; 0
5. CCOC(=O)[N-]c1c[n+](N2CCOCC2)no1; 0.1

---

- System: Calu-3
- assay notes: relative viability EC50 (midpoint between 100% and the lowest measured viability); higher = less toxic
- settings: 72 h
quantity measured: relative viability EC50

1. CC1(C)C(=O)NC2=C1C(=O)C(=O)c1ccccc12 [BVT-948]; 3.34 µM
2. C[C@H]1C[C@H]2[C@@H]3CCC4=CC(=O)C=C[C@]4(C)[C@H]3C(=O)C[C@]2(C)[C@@]1(O)C(=O)CO [Betapar (Meprednisone)]; > 10 µM
3. Fc1ccc(CN2CCC(Nc3ccc(C(F)(F)F)nn3)CC2)cc1F; > 10 µM
4. C[C@@]1(O)[C@H](O)[C@@H](CO)O[C@H]1n1ccc(N)nc1=O [NM107]; > 10 µM
5. COc1ccc(NS(=O)(=O)c2ccc(/N=N/c3ccc(O)c(C(=O)O)c3)cc2)nn1 [salazodine]; > 10 µM

---

- Tested on: HepG2
- assay notes: cell viability relative to DMSO; higher = less toxic
- settings: 72 h; 10000 nM
// reported cell viability for each item listed
quantity measured: cell viability

1. Cc1sc(N)c(C(=O)c2cccc(C(F)(F)F)c2)c1C; 92.7%
2. N=C(N)S/C=C\C(=O)O; 102%
3. Nc1ccc2cc3ccc(N)cc3nc2c1 [proflavine-hemisulfate]; 2%
4. Cc1cc(Nc2ncc(Cl)c(Nc3ccccc3S(=O)(=O)C(C)C)n2)c(OC(C)C)cc1C1CCNCC1; 0.2%
5. CCCN1CCO[C@@H]2c3cc(O)ccc3OC[C@H]21; 105%
6. O=C1c2ccccc2CCC1CNCCc1ccc(O)cc1 (centres undefined); 39.1%
7. c1ccc2c(CC3=NCCN3)cccc2c1; 118%
8. Cc1ccccc1C(=O)Nc1ccc(C(=O)N2CCCC(N(C)C)c3ccccc32)cc1 (centres undefined); 44.3%
9. CCCCCCCCCC(=O)O[C@H]1CC[C@H]2[C@@H]3CCC4=CC(=O)CC[C@@H]4[C@H]3CC[C@]12C [Nandrolone decanoate]; 101%
10. CCc1c(O)cc(O)c(C(=O)c2ccc(OCCN3CCOCC3)c(OC)c2)c1CC(=O)N(CCOC)CCOC; 5.8%
11. Cc1csc(-c2nnc(Nc3ccc(Oc4ncccc4-c4ccnc(N)n4)cc3)c3ccccc23)c1; 2.2%
12. NCC(=O)Nc1ccc(-n2nc(C(F)(F)F)cc2-c2ccc3c(ccc4ccccc43)c2)cc1; 71.5%
13. C[C@H]1C[C@H]2[C@@H]3CCC4=CC(=O)C=C[C@]4(C)[C@H]3C(=O)C[C@]2(C)[C@@]1(O)C(=O)CO; 86.5%
14. CC[N+]1(C)CCCC(OC(=O)C(O)(c2ccccc2)c2ccccc2)C1 (centres undefined) [pipenzolate]; 94.3%
15. COC(=O)C1=C(C)NC(C)=C(C(=O)OCCSc2ccccc2)[C@@H]1C; 95.9%
16. COc1c(C)c(C(=O)c2ccc(N)c(C(=O)O)c2)n2ccccc12; 119%
17. O=C(/C=C/c1cccc(F)c1)NC1CC1 [cinflumide]; 84.8%
18. COc1ccc2[nH]c3c(-c4cccc5ccccc45)nccc3c2c1; 42.8%
19. Cc1c(F)cc(C(=O)NC2CC2)cc1-c1ccc(C(=O)NCC(C)(C)C)cn1; 87.3%
